System: full length human vWF (SEQ ID NO 7)
Test: dot blot KD determination and extent of binding, full length human vWF
Details: Phase 3 modification; extent of aptamer binding at 100 nM full length human vWF
Oligonucleotides are written 5' to 3', each unit as a sugar letter and its base; * is a phosphorothioate linkage, no mark a phosphodiester; rarer units and linkages stand in square brackets, end groups in braces. Plain capitals give the bases only. [invdT] = inverted (3'-3') thymidine; d = 2'-deoxy (DNA); m = 2'-O-methyl
Mark label 1 for reported % binding @ 100 nM vWF of 30% or greater; mark label 0 for anything smaller.

ARC1381: ARC1361 with single phosphorothioate phosphate backbone modification (mGmCmGmUdGdCdAmGmUmGmCmCmUmUmCmGmGmCdCmGdTmGdCdGdGdTmGmCdCmUdCdCmGmUdC*mAmCmGmC[invdT])
label 1
dGdGdCdGTdGdCdAdGTdGdCdCTTdCdGdGdCdCdGTdGdCdGdGTdGdCdCTdCdCdGTdCdAdCdGdCdC-3T (DNA GGCGTGCAGTGCCTTCGGCCGTGCGGTGCCTCCGTCACGCC; DNA, [invdT] at 3' end, backbone and methylation of C not given here) [ARC1172, ARC1115 with 3'-inverted dT]
label 1
ARC1374: ARC1361 with single phosphorothioate phosphate backbone modification (mGmCmGmUdGdCdAmGmUmGmCmCmUmUmCmGmGmCdCmGdTmGdCdGdGdT*mGmCdCmUdCdCmGmUdCmAmCmGmC[invdT]; aptamer)
label 0

Now consider the entry below.
Is % binding @ 100 nM vWF for ARC1371: ARC1361 with single phosphorothioate phosphate backbone modification (mGmCmGmUdGdCdAmGmUmGmCmCmUmUmCmGmGmCdCmGdTmGdC*dGdGdTmGmCdCmUdCdCmGmUdCmAmCmGmC[invdT]) at or above 30%?
label 1

---

Tested on: full length human vWF (SEQ ID NO 7)
Assay: dot blot KD determination and extent of binding, full length human vWF;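 further: dot blot binding of aptamers to full length human vWF across a protein titration, incubated 30 minutes at room temperature in 1x DPBS with BSA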
Settings: Phase 2 modification; full length human vWF; read-out: KD
Oligonucleotides are written 5' to 3', each unit as a sugar letter and its base; * is a phosphorothioate linkage, no mark a phosphodiester; rarer units and linkages stand in square brackets, end groups in braces. Plain capitals give the bases only. [invdT] = inverted (3'-3') thymidine; d = 2'-deoxy (DNA); m = 2'-O-methyl
Parameter measured: pKd
Answers are plain numbers, as −log10 of the molar value.

Below, 3 substances whose answers are already recorded.
mGmGmCmGmUdGdCdAdGTdGdCdCTTdCdGdGdCdCdGTdGdCdGdGTdGdCdCTdCdCdGTdCmAmCmGmCmC-3T (mGmGmCmGmUdGdCdAdGdTdGdCdCdTdTdCdGdGdCdCdGdTdGdCdGdGdTdGdCdCdTdCdCdGdTdCmAmCmGmCmC[invdT]; aptamer) [ARC1338]
8.13
dGdGdCdGTdGdCdAdGTdGdCdCTTdCdGdGdCdCdGTmGdCdGdGTmGmCdCmUdCdCmGmUmCdAdCdGdCdC-3T (dGdGdCdGdTdGdCdAdGdTdGdCdCdTdTdCdGdGdCdCdGdTmGdCdGdGdTmGmCdCmUdCdCmGmUmCdAdCdGdCdC[invdT]; aptamer) [ARC1340]
8.13
mGmGmCmGmUdGdCdAmGmUmGmCmCmUmUmCmGmGmCdCmGTmGdCdGdGTmGmCdCmUdCdCmGmUmCmAmCmGmCmC-3T (mGmGmCmGmUdGdCdAmGmUmGmCmCmUmUmCmGmGmCdCmGdTmGdCdGdGdTmGmCdCmUdCdCmGmUmCmAmCmGmCmC[invdT]; aptamer) [ARC1342]
7.81

Okay, here is my list. What is pKd for each of these?
1. mGmGmCmGmU-s-dG-s-dC-s-dAmGmUmGmCmCmUmUmCmGmGmC-s-dCmG-s-TmG-s-dC-s-dG-s-dG-s-TmGmC-s-dCmU-s-dC-s-dCmGmUmCmAmCmGmCmC-3T (mGmGmCmGmU*dG*dC*dAmGmUmGmCmCmUmUmCmGmGmC*dCmG*dTmG*dC*dG*dG*dTmGmC*dCmU*dC*dCmGmUmCmAmCmGmCmC[invdT]) [ARC1345]
2. mGmCmGmUdGdCdAmGmUmGmCmCmUmUmCmGmGmCdCmGTmGdCdGdGTmGmCdCmUdCdCmGmUmCmAmCmGmC-3T (GCGUGCAGUGCCUUCGGCCGTGCGGTGCCUCCGUCACGC; sugars from the 5' end mmmmdddmmmmmmmmmmmdmdmddddmmdmddmmmmmmm, [invdT] at 3' end, backbone and methylation of C not given here) [ARC1346]

1. 7.92
2. 7.96
